For each record, write down the corresponding TGI.
# System: A549 NSCLC
# testDetails: NCI tumour cell line growth inhibition, 48 h

# annotated cases, reported TGI shown
compound: CC(O)C1OC(O)C2OC(C)(C)OC12 (centres undefined)
measuredOn: A549 NSCLC
measurementName: TGI
recordedValue: > 100 µM

compound: Cn1ccnc1C(=O)/C=C/c1ccc(CC(=O)Nc2ccc(Cl)cc2)cc1
measuredOn: A549 NSCLC
measurementName: TGI
recordedValue: > 25 µM

compound: CCCC1NC(=O)C(CC(C)C)NC(=O)c2cccc(n2)C(=O)NC(CC(C)C)C(=O)NC(CCC)C(=O)NC(C(=O)OC)CCCCNC1=O (centres undefined)
measuredOn: A549 NSCLC
measurementName: TGI
recordedValue: > 100 µM

compound: O=[N+]([O-])c1ccc(N2CCN(Cc3ccccc3)CC2)c2c1no[n+]2[O-]
measuredOn: A549 NSCLC
measurementName: TGI
recordedValue: 3.19 µM

compound: CC(C)(C)OC(=O)[N+](=N)C(=O)C1CCC(=O)N1C(=O)OCc1ccccc1 (centres undefined)
measuredOn: A549 NSCLC
measurementName: TGI
recordedValue: > 100 µM

compound: CN(C)c1ccc(-c2cc(=O)c3ccccc3[nH]2)cc1
measuredOn: A549 NSCLC
measurementName: TGI
recordedValue: > 100 µM

compound: CN1CCN(Cc2ccc(-c3cc4ncnc(Nc5ccc(OCc6cccc(F)c6)c(Cl)c5)c4s3)o2)CC1
measuredOn: A549 NSCLC
measurementName: TGI
recordedValue: 6.92 µM

compound: CC(=O)Nc1ccc(/C=C(\NC(=O)c2ccccc2)c2nc3ccc4c(c3[nH]2)C(=O)c2ccccc2C4=O)cc1
measuredOn: A549 NSCLC
measurementName: TGI
recordedValue: 96.3 µM

Let us examine a further case.
Which TGI is reported for this compound? CCN1CC2=C(N=c3s/c(=C\c4ccc(Cl)cc4)c(=O)n3C2c2ccc(Cl)cc2)/C(=C/c2ccc(Cl)cc2)C1 (centres undefined)
> 100 µM

---

For each entry below, report its GI50 value.
# Tested on: BT-549 breast
# testDetails: NCI tumour cell line growth inhibition, 48 h

These solved cases illustrate the format of a correct answer.
compound: CCNC(=O)C[C@@H]1N=C(c2ccc(Cl)cc2)c2cc(OC)ccc2-n2c(C)nnc21
measuredOn: BT-549 breast
recordedValue: > 28.1 µM

compound: CCN1C(=O)C/C(=C\C(C)=O)Nc2ccccc21
measuredOn: BT-549 breast
recordedValue: > 100 µM

Moving on to another compound below.
# lookup: GI50 of N#CC1=C(N)Oc2cc3c(cc2C1c1cccs1)OCO3 (stereo not drawn)
0.882 µM

---

# Tested on: UACC-62 melanoma
# testDetails: NCI tumour cell line growth inhibition, 48 h
measurementName: TGI

In the examples that follow, each entry is paired with its recorded TGI.
compound: CS(=O)(=O)c1ccc(Oc2cc(F)cc(C#N)c2)c2c1[C@H](O)[C@H](F)[C@@H]2F
measuredOn: UACC-62 melanoma
measurementName: TGI
recordedValue: > 100 µM

compound: O=c1c2ccccc2nc2n1NC(c1c(Cl)cccc1Cl)N2c1cccc(Cl)c1 (stereo not drawn)
measuredOn: UACC-62 melanoma
measurementName: TGI
recordedValue: 22.9 µM

compound: C=C[C@@H]1OC(=O)O[C@H]1CO
measuredOn: UACC-62 melanoma
measurementName: TGI
recordedValue: > 100 µM

Each compound below has a reported value. Please supply its TGI.
1. Cn1c(=O)oc2cc(C(=O)CSC(=S)N3CCCCCC3)ccc21
2. CCN(CC)c1ccc(/C=C(\C#N)c2nc(N)nc(N3N=C(C)CC3(C)C)n2)cc1

["> 100 µM", "> 100 µM"]

---

Assignment: determine reported TGI for the given compounds.
# Test system: MDA-N
# testDetails: NCI tumour cell line growth inhibition, 48 h

Example entries and their recorded answers appear below.
compound: O=C(O)CC(C(=O)O)c1ccccc1[N+](=O)[O-] (centres undefined)
TGI: > 100 µM
--
compound: C=C(O)c1ccccc1C#Cc1ccccc1C(=O)OC
TGI: > 10 µM
--
compound: CCOC(=O)c1nc2cc(N3CCOCC3)c(F)cc2[nH]c1=O
TGI: > 100 µM
--
compound: O=C(Cn1c(=O)ccn(C2OC(CO)C(O)C2F)c1=O)c1ccc(F)cc1 (centres undefined)
TGI: > 100 µM
--
compound: Cc1cc2nc3n[nH]c(N)c3nc2cc1C
TGI: > 100 µM

List reported TGI for each of these compounds:
1. CCOC(=O)CN1CCNCCN(CC(=O)OCC)CCNCC1
2. C=C[C@@H]1OC(=O)O[C@H]1CO

1: > 100 µM; 2: > 100 µM

Provide TGI values for the following items, in order.
1. Clc1ccc(-c2nn3c(CCCCCCCCc4nnc5sc(-c6ccc(Cl)cc6)nn45)nnc3s2)cc1
2. CN(C)CCCNc1c(O)c2c(c(O)c1Cl)C(=O)C=CC2=O
3. O=c1[nH]c2ccc(C(F)(F)F)cc2nc1-c1ccccc1

1. > 94.7 µM
2. 6.38 µM
3. > 100 µM

Give TGI for each of the items listed below.
1. c1ccc(COc2ccc(CC3SCCCS3)cc2)cc1
2. CCOc1c2ccsc2c(OCC)c2ccsc12
3. OC1(c2ccccc2)CC2CCC(C1)N2CCc1ccccc1 (centres undefined)
4. Cc1[nH]c(=O)[nH]c(=O)c1N(CCF)CCCl
5. Cc1ccc(/C=C2\CN(C)CC3=C2OC(N)=C(C#N)C3c2ccc(C)cc2)cc1 (centres undefined)

1: > 100 µM; 2: 4.83 µM; 3: > 100 µM; 4: 828 µM; 5: 38.1 µM

Return reported TGI values for all items listed beneath this line.
1. O=c1c2ccccc2nc2n1NC(c1c(Cl)cccc1Cl)N2c1cccc(Cl)c1 (centres undefined)
2. S=c1[nH]nc(COc2ccc3c(c2)CCCC3)n1/N=C/c1ccc(Cl)cc1
3. CN1C2CCC1CC(OC(c1ccccc1)c1ccccc1)C2 (centres undefined)
4. CN1CCCN2CCN(C)CCN(CC1)CC2
5. CC(C)(C)[OH+][O-].[O-]c1ccc(Cl)cc1C=Nc1ccc(Cl)cc1[O-].[O]=[V]

1: > 100 µM; 2: 33.5 µM; 3: 28.8 µM; 4: > 100 µM; 5: > 100 µM

For the 3 compounds below, give their TGI values.
1. Cc1ccc2c(c1)SSSSS2
2. CCN1CC2=C(N=c3s/c(=C\c4ccc(Cl)cc4)c(=O)n3C2c2ccc(Cl)cc2)/C(=C/c2ccc(Cl)cc2)C1 (centres undefined)
3. O=C(c1ccccc1)c1ccc(C(c2c(O)c3ccccc3oc2=O)c2c(O)c3ccccc3oc2=O)cc1

1. 87.1 µM
2. > 100 µM
3. > 71.7 µM

Here are 5 compounds. What values of TGI were reported for them?
1. Brc1cccc(/C=C/CN2CCN(CCOC(c3ccccc3)c3ccccc3)CC2)c1
2. CCN(CC)CCn1c(C(C)(C)C)nc2ccccc21
3. CSC(SC)=C1CC(=O)Nc2ccccc2C1=O
4. CCOP(=O)(OCC)C(NC(=O)OCC(Cl)(Cl)Cl)n1nnc(C(=O)OC)c1C(=O)OC (centres undefined)
5. COC(CN(C)C(=O)C(C)NC(=O)c1ccccc1)OC (centres undefined)

32.9 µM
> 100 µM
> 100 µM
> 100 µM
> 100 µM

Query: TGI; subject: CCOC(=O)C1C(=O)CC(O)(OCC)C(C(=O)OCC)C1c1ccc(OC)cc1 (centres undefined)
> 100 µM

---

# Test system: EKVX NSCLC
# testDetails: NCI tumour cell line growth inhibition, 48 h
Task for the reader: assign each of the following compounds its reported GI50.

// below: answered compounds
structureSmiles: CCC1=C(C)/C(=C/c2[nH]c(C)c(C(=O)CCCCC(=O)OC)c2C)N=C1c1ccc[nH]1
measuredOn: EKVX NSCLC
GI50: 12.2 µM

structureSmiles: CCNC(=O)C[C@@H]1N=C(c2ccc(Cl)cc2)c2cc(OC)ccc2-n2c(C)nnc21
measuredOn: EKVX NSCLC
GI50: > 100 µM

structureSmiles: O=C1c2ccccc2-c2c1c1ccccc1c(=O)n2CCCNCCCn1c2c(c3ccccc3c1=O)C(=O)c1ccccc1-2
measuredOn: EKVX NSCLC
GI50: 3.98 µM

structureSmiles: Oc1ccc2ccccc2c1C=NCCCN=Cc1c(O)ccc2ccccc12
measuredOn: EKVX NSCLC
GI50: 17.3 µM

structureSmiles: CCn1c(=O)c(-c2ccn[nH]2)cc2c(C)nc(N)nc21
measuredOn: EKVX NSCLC
GI50: 0.691 µM

// returns reported GI50 for input COc1cccc(-c2nn(-c3ccccc3)cc2-c2ccnc(NCCNS(=O)(=O)c3ccc(Cl)cc3)c2)c1
3.84 µM

---

# Tested on: HL-60(TB) leukemia
# testDetails: NCI tumour cell line growth inhibition, 48 h; in the data active means GI50 below about 0.43 µM; inactive means the rest
Valid outcomes are listed here; reply with one: y (active), n (inactive)

Example entries begin here.
molecule: C=C1C(=O)O[C@@H]2C[C@@H]1CC[C@]1(C)O[C@H]1CC[C@@]1(C)O[C@@H]1CC[C@@]2(C)O
assignedCategory: n

molecule: O=C(Nc1ccc(S(=O)(=O)Nc2nccs2)cc1)c1cccnc1Nc1cccc(Cl)c1
assignedCategory: n

molecule: CN(C)/[N+]([O-])=N/Oc1cc(Nc2cccc(C(=O)O)c2)c([N+](=O)[O-])cc1[N+](=O)[O-]
assignedCategory: n

molecule: CCc1ccc(-c2nnc(COc3ccc(-c4nc5ccc(C)cc5[nH]4)cc3OC)o2)cc1
assignedCategory: n

molecule: CCN1C(=O)C/C(=C\C(C)=O)Nc2ccccc21
assignedCategory: n

How was O=C1c2ccccc2-c2c1c1ccccc1c(=O)n2CCCNCCCn1c2c(c3ccccc3c1=O)C(=O)c1ccccc1-2 classified in this test?
n

Short answer needed: outcome of this test for CNc1ccccc1C(=O)N/N=C/C=C/c1ccccc1 ?
n

Fill in: this test's call for Nc1c(C(=O)Nc2ccccc2)sc2nc3c(cc12)CCCCCC3 is ___
y

Lab log entry: Cn1ccnc1C(=O)/C=C/c1ccc(CC(=O)Nc2ccc(Cl)cc2)cc1 — outcome as called in the assay?
n

Please state the recorded outcome for this molecule: OC(c1cc2cc(Br)ccc2c2cc(Br)ccc12)C1CCCCN1 (configuration not stated)
n

Test call for this molecule, please: O=S(=O)([O-])[O-].[OH3+].[OH3+].[OH3+].[Ru+2].c1ccccc1
n

So what was the verdict on O=[N+]([O-])c1cnc(Sc2ccncn2)c([N+](=O)[O-])c1 in this test?
n

Taken from PubChem BioAssay (NCI).
